# assayNotes: Oral testosterone pharmacokinetics and serum metabolite profile (LC-MS/MS) in men with acyline-induced experimental hypogonadism, with and without dutasteride
# Type: in vivo, human
# experimentalConditions: serum, T200
Item-by-item account of AUC 0-24 h
I only need the number, in µM·h, no unit after it.

Worked examples follow.
compound	experimentalEndpoint	unitsOfMeasure	recordedResult
C[C@]12CC[C@@H](O[C@@H]3O[C@H](C(=O)O)[C@@H](O)[C@H](O)[C@H]3O)C[C@H]1CC[C@@H]1[C@@H]2CC[C@]2(C)C(=O)CC[C@@H]12 [EtioG, Etiocholanolone glucuronide]	AUC 0-24 h	µM·h	2.1604
C[C@]12CCC(=O)C=C1CC[C@@H]1[C@@H]2CC[C@]2(C)C(=O)CC[C@@H]12	AUC 0-24 h	µM·h	0.3737
C[C@]12CCC(=O)C[C@@H]1CC[C@@H]1[C@@H]2CC[C@]2(C)[C@@H](O)CC[C@@H]12 [DHT, 5α-Dihydrotestosterone]	AUC 0-24 h	µM·h	0.0265

(Q) Quick check: AUC 0-24 h of C[C@]12CC[C@H]3[C@@H](CCC4=CC(=O)CC[C@@]43C)[C@@H]1CC[C@@H]2O [T, Testosterone, reference compound] ?
(A) 0.0816

(Q) Using the record for C[C@]12CC[C@@H](O[C@@H]3O[C@H](C(=O)O)[C@@H](O)[C@H](O)[C@H]3O)C[C@@H]1CC[C@@H]1[C@@H]2CC[C@]2(C)C(=O)CC[C@@H]12 [AG, Androsterone glucuronide] , report its AUC 0-24 h.
(A) 12.1108

(Q) Entry C[C@]12CC[C@H]3[C@@H](CCC4=CC(=O)CC[C@@]43C)[C@@H]1CC[C@@H]2O[C@@H]1O[C@H](C(=O)O)[C@@H](O)[C@H](O)[C@H]1O [TG, Testosterone glucuronide] : reported AUC 0-24 h = ?
(A) 0.8572

====

# assayNotes: Oral testosterone pharmacokinetics and serum metabolite profile (LC-MS/MS) in men with acyline-induced experimental hypogonadism, with and without dutasteride
# Format: in vivo, human
# experimentalConditions: serum, T800 + D
Threshold rule: AUC 0-24 h greater than or equal to 9 µM·h is Satisfied; below that, Not satisfied.

The examples below pair each entry with its known result.
compound	group
C[C@]12CC[C@@H](O[C@@H]3O[C@H](C(=O)O)[C@@H](O)[C@H](O)[C@H]3O)C[C@H]1CC[C@@H]1[C@@H]2CC[C@]2(C)C(=O)CC[C@@H]12 [EtioG, Etiocholanolone glucuronide]	Satisfied
C[C@]12CCC(=O)C[C@@H]1CC[C@@H]1[C@@H]2CC[C@]2(C)[C@@H](O)CC[C@@H]12 [DHT, 5α-Dihydrotestosterone]	Not satisfied
C[C@]12CCC(=O)C=C1CC[C@@H]1[C@@H]2CC[C@]2(C)C(=O)CC[C@@H]12	Satisfied
C[C@]12CC[C@H]3[C@@H](CCC4=CC(=O)CC[C@@]43C)[C@@H]1CC[C@@H]2O [T, Testosterone, reference compound]	Not satisfied
C[C@]12CC[C@@H](O[C@@H]3O[C@H](C(=O)O)[C@@H](O)[C@H](O)[C@H]3O)C[C@@H]1CC[C@@H]1[C@@H]2CC[C@]2(C)C(=O)CC[C@@H]12 [AG, Androsterone glucuronide]	Satisfied

(Q) Test whether the compound C[C@]12CC[C@H]3[C@@H](CCC4=CC(=O)CC[C@@]43C)[C@@H]1CC[C@@H]2O[C@@H]1O[C@H](C(=O)O)[C@@H](O)[C@H](O)[C@H]1O [TG, Testosterone glucuronide] records AUC 0-24 h of 9 µM·h or higher.
(A) Not satisfied

====

# assayNotes: Oral testosterone pharmacokinetics and serum metabolite profile (LC-MS/MS) in men with acyline-induced experimental hypogonadism, with and without dutasteride
# Format: in vivo, human
# experimentalConditions: serum, T800 (800 mg oral T)
Binary call on t½: Met from 5 h upward, Not met beneath that.

Solved entries (count: 2):
molecule	group
C[C@]12CCC(=O)C[C@@H]1CC[C@@H]1[C@@H]2CC[C@]2(C)[C@@H](O)CC[C@@H]12 [DHT, 5α-Dihydrotestosterone]	Met
C[C@]12CC[C@@H](O[C@@H]3O[C@H](C(=O)O)[C@@H](O)[C@H](O)[C@H]3O)C[C@@H]1CC[C@@H]1[C@@H]2CC[C@]2(C)C(=O)CC[C@@H]12 [AG, Androsterone glucuronide]	Not met

(Q) Could you please find out whether C[C@]12CC[C@H]3[C@@H](CCC4=CC(=O)CC[C@@]43C)[C@@H]1CC[C@@H]2O[C@@H]1O[C@H](C(=O)O)[C@@H](O)[C@H](O)[C@H]1O [TG, Testosterone glucuronide] has t½ that meets 5 h or exceeds it?
(A) Not met

(Q) Quick check: does C[C@]12CC[C@H]3[C@@H](CCC4=CC(=O)CC[C@@]43C)[C@@H]1CC[C@@H]2O [T, Testosterone, reference compound] have t½ greater than or equal to 5 h?
(A) Met

(Q) Has C[C@]12CC[C@@H](O[C@@H]3O[C@H](C(=O)O)[C@@H](O)[C@H](O)[C@H]3O)C[C@H]1CC[C@@H]1[C@@H]2CC[C@]2(C)C(=O)CC[C@@H]12 [EtioG, Etiocholanolone glucuronide] a recorded t½ greater than or equal to 5 h?
(A) Met

(Q) State whether the measured t½ reaches 5 h, counting equality as reaching it, for C[C@]12CCC(=O)C=C1CC[C@@H]1[C@@H]2CC[C@]2(C)C(=O)CC[C@@H]12
(A) Met

====

# assayNotes: Oral testosterone pharmacokinetics and serum metabolite profile (LC-MS/MS) in men with acyline-induced experimental hypogonadism, with and without dutasteride
# Type: in vivo, human
# experimentalConditions: male, human, serum, oral, 200 mg, T200
experimentalEndpoint: CL/F (mL/min)
Value expressed in mL/min; do not type the unit.

(Q) Using the record for C[C@]12CC[C@H]3[C@@H](CCC4=CC(=O)CC[C@@]43C)[C@@H]1CC[C@@H]2O [T, Testosterone, reference compound] , report its CL/F.
(A) 106000

====

# assayNotes: Oral testosterone pharmacokinetics and serum metabolite profile (LC-MS/MS) in men with acyline-induced experimental hypogonadism, with and without dutasteride
# Type: in vivo, human
# experimentalConditions: serum, T200 + D
experimentalEndpoint: AUC 0-24 h (µM·h)
The response must be a number in µM·h with no trailing unit.

Consider the reported AUC 0-24 h for these compounds:
compound	recordedResult
C[C@]12CCC(=O)C=C1CC[C@@H]1[C@@H]2CC[C@]2(C)C(=O)CC[C@@H]12	1.6349
C[C@]12CC[C@H]3[C@@H](CCC4=CC(=O)CC[C@@]43C)[C@@H]1CC[C@@H]2O [T, Testosterone, reference compound]	0.0847
C[C@]12CCC(=O)C[C@@H]1CC[C@@H]1[C@@H]2CC[C@]2(C)[C@@H](O)CC[C@@H]12 [DHT, 5α-Dihydrotestosterone]	0.0096

(Q) Dear colleague, I am looking for the recorded AUC 0-24 h of the following compound: C[C@]12CC[C@H]3[C@@H](CCC4=CC(=O)CC[C@@]43C)[C@@H]1CC[C@@H]2O[C@@H]1O[C@H](C(=O)O)[C@@H](O)[C@H](O)[C@H]1O [TG, Testosterone glucuronide]
(A) 0.3734

====

# assayNotes: Oral testosterone pharmacokinetics and serum metabolite profile (LC-MS/MS) in men with acyline-induced experimental hypogonadism, with and without dutasteride
# Type: in vivo, human
# experimentalConditions: male, human, serum, oral, 800 mg, T800
experimentalEndpoint: CL/F

(Q) Report CL/F for C[C@]12CC[C@H]3[C@@H](CCC4=CC(=O)CC[C@@]43C)[C@@H]1CC[C@@H]2O [T, Testosterone, reference compound] please.
(A) 259000 mL/min

====

# assayNotes: Oral testosterone pharmacokinetics and serum metabolite profile (LC-MS/MS) in men with acyline-induced experimental hypogonadism, with and without dutasteride
# Format: in vivo, human
# experimentalConditions: serum, T800
experimentalEndpoint: AUC 0-24 h (µM·h)
# unit: µM·h | format: bare number

compound	experimentalEndpoint	unitsOfMeasure	recordedResult
C[C@]12CC[C@@H](O[C@@H]3O[C@H](C(=O)O)[C@@H](O)[C@H](O)[C@H]3O)C[C@@H]1CC[C@@H]1[C@@H]2CC[C@]2(C)C(=O)CC[C@@H]12 [AG, Androsterone glucuronide]	AUC 0-24 h	µM·h	65.4278
C[C@]12CC[C@H]3[C@@H](CCC4=CC(=O)CC[C@@]43C)[C@@H]1CC[C@@H]2O[C@@H]1O[C@H](C(=O)O)[C@@H](O)[C@H](O)[C@H]1O [TG, Testosterone glucuronide]	AUC 0-24 h	µM·h	14.163
C[C@]12CC[C@H]3[C@@H](CCC4=CC(=O)CC[C@@]43C)[C@@H]1CC[C@@H]2O [T, Testosterone, reference compound]	AUC 0-24 h	µM·h	0.1689

(Q) Name the reported AUC 0-24 h value associated with the compound C[C@]12CCC(=O)C[C@@H]1CC[C@@H]1[C@@H]2CC[C@]2(C)[C@@H](O)CC[C@@H]12 [DHT, 5α-Dihydrotestosterone]
(A) 0.0874

(Q) Give its AUC 0-24 h value. Item: C[C@]12CC[C@@H](O[C@@H]3O[C@H](C(=O)O)[C@@H](O)[C@H](O)[C@H]3O)C[C@H]1CC[C@@H]1[C@@H]2CC[C@]2(C)C(=O)CC[C@@H]12 [EtioG, Etiocholanolone glucuronide]
(A) 14.9815

(Q) Please report the recorded AUC 0-24 h for C[C@]12CCC(=O)C=C1CC[C@@H]1[C@@H]2CC[C@]2(C)C(=O)CC[C@@H]12 [AED, Androstenedione] .
(A) 1.5518
